Test system: Micrococcus luteus
Assay: Antibacterial activity against drug-sensitive Micrococcus luteus ATCC 10240 by broth microdilution method
Type: functional
Would you mind telling me the reported MBC of each entry?
Numbers only, in µg/mL.

Q: Look up and state reported MBC for Clc1ccc(Nc2nn3c(-c4ccccc4)nnc3s2)cc1
Result: 15.6

Q: Look up and state reported MBC for Clc1ccc(-c2nnc3sc(Nc4ccc(Br)cc4)nn23)cc1
Result: 15.6

State the recorded MBC for every item in the following list.
1. Clc1ccccc1-c1nnc2sc(Nc3ccc(Br)cc3)nn12
2. CN[C@H](CC(C)C)C(=O)N[C@H]1C(=O)N[C@@H](CC(N)=O)C(=O)N[C@H]2C(=O)N[C@H]3C(=O)N[C@H](C(=O)N[C@H](C(=O)O)c4cc(O)cc(O)c4-c4cc3ccc4O)[C@H](O)c3ccc(c(Cl)c3)Oc3cc2cc(c3O[C@@H]2O[C@H](CO)[C@@H](O)[C@H](O)[C@H]2O[C@H]2C[C@](C)(N)[C@H](O)[C@H](C)O2)Oc2ccc(cc2Cl)[C@H]1O
3. Clc1ccc(Nc2nn3c(-c4ccc(Cl)cc4)nnc3s2)cc1
4. Brc1ccc(Nc2nn3c(-c4ccccc4)nnc3s2)cc1
5. Clc1cccc(-c2nnc3sc(Nc4ccc(Br)cc4)nn23)c1

Result:
[7.81, 0.49, 31.2, 7.81, 3.91]

State the recorded MBC for every item in the following list.
1. Clc1ccc(Nc2nn3c(-c4ccccc4Cl)nnc3s2)cc1
2. Clc1ccc(Nc2nn3c(-c4cccc(Cl)c4)nnc3s2)cc1

Result:
[15.6, 3.91]

====

Test system: Staphylococcus epidermidis
Assay: Antibacterial activity against drug-sensitive Staphylococcus epidermidis ATCC 12228 by broth microdilution method
Format: functional
readout: MBC (µg/mL)
Give bare numbers, in µg/mL.

Below: 5 molecules and their reported MBC.
Q: Look up and state reported MBC for Clc1cccc(-c2nnc3sc(Nc4ccc(Br)cc4)nn23)c1
Result: 3.91

Q: Look up and state reported MBC for Brc1ccc(Nc2nn3c(-c4ccccc4)nnc3s2)cc1
Result: 0.98

Q: Look up and state reported MBC for Clc1ccc(-c2nnc3sc(Nc4ccc(Br)cc4)nn23)cc1
Result: 1.95

Q: Look up and state reported MBC for Clc1ccc(Nc2nn3c(-c4ccccc4)nnc3s2)cc1
Result: 3.91

Q: Look up and state reported MBC for Clc1ccc(Nc2nn3c(-c4ccccc4Cl)nnc3s2)cc1
Result: 15.6

Next:
Q: Look up and state reported MBC for Clc1ccc(Nc2nn3c(-c4cccc(Cl)c4)nnc3s2)cc1
Result: 3.91

====

Tested on: Bacillus cereus
Assay: Ratio of ampicillin MIC to compound MIC for drug-sensitive Bacillus cereus ATCC 10876 by broth microdilution method
Assay type: functional
readout: Ratio

Below: 3 compounds and their reported Ratio.
Q: Provide the reported Ratio (system: Bacillus cereus) for Clc1ccc(Nc2nn3c(-c4ccc(Cl)cc4)nnc3s2)cc1
Result: 8

Q: Provide the reported Ratio (system: Bacillus cereus) for Clc1ccc(Nc2nn3c(-c4ccccc4Cl)nnc3s2)cc1
Result: 16

Q: Provide the reported Ratio (system: Bacillus cereus) for Clc1ccccc1-c1nnc2sc(Nc3ccc(Br)cc3)nn12
Result: 8

State the recorded Ratio for every item in the following list.
1. Clc1ccc(-c2nnc3sc(Nc4ccc(Br)cc4)nn23)cc1
2. Clc1ccc(Nc2nn3c(-c4cccc(Cl)c4)nnc3s2)cc1
3. Clc1ccc(Nc2nn3c(-c4ccccc4)nnc3s2)cc1

Result:
1. 4
2. 8
3. 4

State the recorded Ratio for every item in the following list.
1. Clc1cccc(-c2nnc3sc(Nc4ccc(Br)cc4)nn23)c1
2. Brc1ccc(Nc2nn3c(-c4ccccc4)nnc3s2)cc1

Result:
4
4

====

Test system: Staphylococcus aureus
Experiment: Ratio of MBC to MIC for methicillin-resistant Staphylococcus aureus ATCC 14001
Assay type: functional
readout: Ratio

Q: Look up and state reported Ratio for Clc1ccc(Nc2nn3c(-c4ccccc4)nnc3s2)cc1
Result: 32

Q: Look up and state reported Ratio for Clc1ccccc1-c1nnc2sc(Nc3ccc(Br)cc3)nn12
Result: 8

Q: Look up and state reported Ratio for Clc1cccc(-c2nnc3sc(Nc4ccc(Br)cc4)nn23)c1
Result: 128

State the recorded Ratio for every item in the following list.
1. Clc1ccc(Nc2nn3c(-c4cccc(Cl)c4)nnc3s2)cc1
2. Clc1ccc(Nc2nn3c(-c4ccccc4Cl)nnc3s2)cc1
3. Clc1ccc(-c2nnc3sc(Nc4ccc(Br)cc4)nn23)cc1

Result:
64
32
16

====

Tested on: Bacillus cereus
Assay: Antibacterial activity against drug-sensitive Bacillus cereus ATCC 10876 by broth microdilution method
Type: functional
readout: MIC (µg/mL)
Numbers only, in µg/mL.

Below: 3 molecules and their reported MIC.
Q: Look up and state reported MIC for Clc1ccc(-c2nnc3sc(Nc4ccc(Br)cc4)nn23)cc1
Result: 15.6

Q: Look up and state reported MIC for CC1(C)S[C@@H]2[C@H](NC(=O)[C@H](N)c3ccccc3)C(=O)N2[C@H]1C(=O)O
Result: 62.5

Q: Look up and state reported MIC for Clc1ccc(Nc2nn3c(-c4ccccc4)nnc3s2)cc1
Result: 15.6

Here is another molecule to look at.
Q: Look up and state reported MIC for Clc1ccc(Nc2nn3c(-c4ccccc4Cl)nnc3s2)cc1
Result: 3.91

====

Tested on: Staphylococcus aureus
Test: Antibacterial activity against methicillin-resistant Staphylococcus aureus ATCC 14001 by broth microdilution method
Assay type: functional
readout: MBC (µg/mL)
One number for each entry, in µg/mL.

Q: Look up and state reported MBC for CN[C@H](CC(C)C)C(=O)N[C@H]1C(=O)N[C@@H](CC(N)=O)C(=O)N[C@H]2C(=O)N[C@H]3C(=O)N[C@H](C(=O)N[C@H](C(=O)O)c4cc(O)cc(O)c4-c4cc3ccc4O)[C@H](O)c3ccc(c(Cl)c3)Oc3cc2cc(c3O[C@@H]2O[C@H](CO)[C@@H](O)[C@H](O)[C@H]2O[C@H]2C[C@](C)(N)[C@H](O)[C@H](C)O2)Oc2ccc(cc2Cl)[C@H]1O
Result: 3.91

State the recorded MBC for every item in the following list.
1. Clc1ccc(Nc2nn3c(-c4ccccc4Cl)nnc3s2)cc1
2. Clc1ccc(Nc2nn3c(-c4cccc(Cl)c4)nnc3s2)cc1
3. Brc1ccc(Nc2nn3c(-c4ccccc4)nnc3s2)cc1
4. Clc1ccc(-c2nnc3sc(Nc4ccc(Br)cc4)nn23)cc1
5. Clc1cccc(-c2nnc3sc(Nc4ccc(Br)cc4)nn23)c1

Result:
62.5
62.5
62.5
125
125

State the recorded MBC for every item in the following list.
1. Clc1ccc(Nc2nn3c(-c4ccc(Cl)cc4)nnc3s2)cc1
2. Clc1ccc(Nc2nn3c(-c4ccccc4)nnc3s2)cc1
3. Clc1ccccc1-c1nnc2sc(Nc3ccc(Br)cc3)nn12

Result:
1. 62.5
2. 62.5
3. 15.6

====

Would you mind telling me the reported MIC of each entry?
Tested on: Staphylococcus aureus
Assay: Antibacterial activity against methicillin-resistant Staphylococcus aureus ATCC 14001 by broth microdilution method
Type: functional

Below: 5 compounds and their reported MIC.
Q: Look up and state reported MIC for Clc1ccc(-c2nnc3sc(Nc4ccc(Br)cc4)nn23)cc1
Result: 7.81 µg/mL

Q: Look up and state reported MIC for Clc1cccc(-c2nnc3sc(Nc4ccc(Br)cc4)nn23)c1
Result: 0.98 µg/mL

Q: Look up and state reported MIC for Clc1ccc(Nc2nn3c(-c4cccc(Cl)c4)nnc3s2)cc1
Result: 0.98 µg/mL

Q: Look up and state reported MIC for Clc1ccc(Nc2nn3c(-c4ccc(Cl)cc4)nnc3s2)cc1
Result: 7.81 µg/mL

Q: Look up and state reported MIC for Clc1ccc(Nc2nn3c(-c4ccccc4Cl)nnc3s2)cc1
Result: 1.95 µg/mL

State the recorded MIC for every item in the following list.
1. Brc1ccc(Nc2nn3c(-c4ccccc4)nnc3s2)cc1
2. Clc1ccccc1-c1nnc2sc(Nc3ccc(Br)cc3)nn12
3. Clc1ccc(Nc2nn3c(-c4ccccc4)nnc3s2)cc1

Result:
1. 7.81 µg/mL
2. 1.95 µg/mL
3. 1.95 µg/mL

Q: Look up and state reported MIC for CN[C@H](CC(C)C)C(=O)N[C@H]1C(=O)N[C@@H](CC(N)=O)C(=O)N[C@H]2C(=O)N[C@H]3C(=O)N[C@H](C(=O)N[C@H](C(=O)O)c4cc(O)cc(O)c4-c4cc3ccc4O)[C@H](O)c3ccc(c(Cl)c3)Oc3cc2cc(c3O[C@@H]2O[C@H](CO)[C@@H](O)[C@H](O)[C@H]2O[C@H]2C[C@](C)(N)[C@H](O)[C@H](C)O2)Oc2ccc(cc2Cl)[C@H]1O [VANCOMYCIN]
Result: 0.98 µg/mL

====

System: Staphylococcus aureus
Experiment: Antibacterial activity against drug-sensitive Staphylococcus aureus ATCC 6538 by broth microdilution method
Type: functional
readout: log10 MBC (log10 of the value in µg/mL)
A value of 2 here means MBC of 100 in µg/mL, since values are log10.

Below: 5 compounds and their reported log10 MBC.
Q: Look up and state reported log10 MBC for Brc1ccc(Nc2nn3c(-c4ccccc4)nnc3s2)cc1
Result: 2.10

Q: Look up and state reported log10 MBC for Clc1ccc(Nc2nn3c(-c4ccccc4Cl)nnc3s2)cc1
Result: 1.19

Q: Look up and state reported log10 MBC for Clc1ccc(Nc2nn3c(-c4ccc(Cl)cc4)nnc3s2)cc1
Result: 1.80

Q: Look up and state reported log10 MBC for Clc1ccc(Nc2nn3c(-c4cccc(Cl)c4)nnc3s2)cc1
Result: 1.49

Q: Look up and state reported log10 MBC for Clc1cccc(-c2nnc3sc(Nc4ccc(Br)cc4)nn23)c1
Result: 1.49

State the recorded log10 MBC for every item in the following list.
1. Clc1ccccc1-c1nnc2sc(Nc3ccc(Br)cc3)nn12
2. CN[C@H](CC(C)C)C(=O)N[C@H]1C(=O)N[C@@H](CC(N)=O)C(=O)N[C@H]2C(=O)N[C@H]3C(=O)N[C@H](C(=O)N[C@H](C(=O)O)c4cc(O)cc(O)c4-c4cc3ccc4O)[C@H](O)c3ccc(c(Cl)c3)Oc3cc2cc(c3O[C@@H]2O[C@H](CO)[C@@H](O)[C@H](O)[C@H]2O[C@H]2C[C@](C)(N)[C@H](O)[C@H](C)O2)Oc2ccc(cc2Cl)[C@H]1O [VANCOMYCIN]
3. Clc1ccc(Nc2nn3c(-c4ccccc4)nnc3s2)cc1
4. Clc1ccc(-c2nnc3sc(Nc4ccc(Br)cc4)nn23)cc1

Result:
1: 1.80; 2: 0.29; 3: 1.49; 4: 1.49
